assay: Plasma protein binding, equilibrium dialysis; conditions: 10 μM, 37° C., 6 h
// values below are reported Human plasma protein binding
Number only, in %; omit the unit.

See these solved cases before continuing.
FC(F)(F)c1ccc(Oc2ccc(-c3noc(-c4n[nH]cc4Cl)n3)cc2)cc1 [Compound 60b]; 97.8
C#Cc1c[nH]nc1-c1nc(-c2ccc(Oc3ccc(C(F)(F)F)cc3)cc2)no1 [Compound 66b]; 96.4

## Task Query (molecule): Oc1ccc(-c2nc(-c3ccc(Oc4ccc(C(F)(F)F)cc4)cc3)no2)cc1 ; field requested: Human plasma protein binding
## Result 99.9

## Task Query (molecule): FC(F)(F)c1ccc(Oc2ccc(-c3noc(-c4c[nH]cn4)n3)cc2)cc1 [Compound 76b] ; field requested: Human plasma protein binding
## Result 93.5

## Task Query (molecule): FC(F)(F)c1ccc(Oc2ccc(-c3noc(-c4ccc5[nH]ccc5c4)n3)cc2)cc1 [Compound 75b] ; field requested: Human plasma protein binding
## Result 98.2

## Task Query (molecule): CC(C)Nc1c[nH]nc1-c1nc(-c2ccc(Oc3ccc(C(F)(F)F)cc3)cc2)no1 [Compound 65b] ; field requested: Human plasma protein binding
## Result 91.6

## Task Query (molecule): Fc1ccc(Oc2ccc(-c3noc(-c4n[nH]cc4Cl)n3)cc2)cc1 [Compound 60c] ; field requested: Human plasma protein binding
## Result 94.5

* * *

system: S. aureus ATCC 29213; assay: MIC determination; assay type: cell-based, Staphylococcus aureus; settings: S. aureus ATCC 29213; compounds of Schemes 3-4
Endpoint label: antibacterial activity in words (SAR, ring A derivatives)

Fc1ccc(Oc2ccc(-c3noc(-c4cc[nH]c4)n3)cc2)cc1 [Compound 127c]; No activity
CC(C)c1cc(-c2nc(-c3ccc(Oc4ccc(F)cc4)cc3)no2)[nH]n1 [Compound 119c]; No activity

* * *

assay: Fast pharmacokinetic (PK) studies; type: in vivo, mouse; details: single iv dose at 20 mg/kg, mice
Endpoint label: CL (L/h/kg)
Number only, in L/h/kg; omit the unit.

See these solved cases before continuing.
FC(F)(F)c1ccc(Oc2ccc(-c3noc(-c4n[nH]cc4Cl)n3)cc2)cc1 [Compound 60b]; 1.32
CC(C)Nc1c[nH]nc1-c1nc(-c2ccc(Oc3ccc(C(F)(F)F)cc3)cc2)no1 [Compound 65b]; 0.912
Fc1ccc(Oc2ccc(-c3noc(-c4n[nH]cc4Cl)n3)cc2)cc1 [Compound 60c]; 2.69
C#Cc1c[nH]nc1-c1nc(-c2ccc(Oc3ccc(C(F)(F)F)cc3)cc2)no1 [Compound 66b]; 0.144
FC(F)(F)c1ccc(Oc2ccc(-c3noc(-c4ccc5[nH]ccc5c4)n3)cc2)cc1 [Compound 75b]; 0.912

Here is the next item to consider.
## Task Query (compound): FC(F)(F)c1ccc(Oc2ccc(-c3noc(-c4c[nH]cn4)n3)cc2)cc1 [Compound 76b] ; field requested: CL
## Result 0.582

* * *

// values below are reported MIC
system: S. pyogenes ATCC 49399; test: MIC determination; format: cell-based; conditions: Streptococcus pyogenes, ATCC49399; Table 1; read-out: MIC

See these solved cases before continuing.
FC(F)(F)c1ccc(Oc2ccc(-c3noc(-c4n[nH]cc4Cl)n3)cc2)cc1 [Compound 60b]; > 128 µg/mL
C#Cc1c[nH]nc1-c1nc(-c2ccc(Oc3ccc(C(F)(F)F)cc3)cc2)no1 [Compound 66b]; > 128 µg/mL

Here is the next item to consider.
## Task Query (compound): Fc1ccc(Oc2ccc(-c3noc(-c4n[nH]cc4Cl)n3)cc2)cc1 [Compound 60c] ; field requested: MIC
## Result > 128 µg/mL

* * *

assay: Fast pharmacokinetic (PK) studies; format: in vivo, mouse; conditions: single iv dose at 20 mg/kg, mice
Endpoint label: AUC0-8 h (µg·min/mL)
Number only, in µg·min/mL; omit the unit.

See these solved cases before continuing.
FC(F)(F)c1ccc(Oc2ccc(-c3noc(-c4c[nH]cn4)n3)cc2)cc1 [Compound 76b]; 2054
CC(C)Nc1c[nH]nc1-c1nc(-c2ccc(Oc3ccc(C(F)(F)F)cc3)cc2)no1 [Compound 65b]; 1313

Here is the next item to consider.
## Task Query (molecule): FC(F)(F)c1ccc(Oc2ccc(-c3noc(-c4ccc5[nH]ccc5c4)n3)cc2)cc1 [Compound 75b] ; field requested: AUC0-8 h
## Result 1283
